# SYSTEM UNDER TEST: human 5-HT2A (Homo sapiens (Human), UniProt P28223)
# EXPERIMENTAL DETAILS: cell-based
# Format: cell-based
# ASSAY CONDITIONS: agonist potency, n = 3-4; read-out: 5-HT2A EC50
Counter-ions that a name gives are not always drawn.
# key: entry, value: EC50
Reply with just the number (in nM).

Answered examples (3):
MOLECULE: COc1cc(C(F)(F)F)c(OC)cc1C1CCC(C)NC1 (single isomer, unassigned) [Compound 37, hydrochloride]
READING UNIT: nM
EC50: 270
--
MOLECULE: COc1cc([C@@H]2CCCNC2)c(OCF)cc1C(F)(F)F
READING UNIT: nM
EC50: 150
--
MOLECULE: COc1cc([C@H]2CCCNC2)c(OC2CC2)cc1C(F)(F)F [Compound 54, hydrochloride]
READING UNIT: nM
EC50: 1800

Noted for COc1cc(C(F)(F)F)c(OC)cc1[C@@H]1CCNC1 : its EC50 reads 5.4

----------
# SYSTEM UNDER TEST: a2A (Homo sapiens (Human), UniProt P08913)
# Sequence (P08913 whole entry, looked up): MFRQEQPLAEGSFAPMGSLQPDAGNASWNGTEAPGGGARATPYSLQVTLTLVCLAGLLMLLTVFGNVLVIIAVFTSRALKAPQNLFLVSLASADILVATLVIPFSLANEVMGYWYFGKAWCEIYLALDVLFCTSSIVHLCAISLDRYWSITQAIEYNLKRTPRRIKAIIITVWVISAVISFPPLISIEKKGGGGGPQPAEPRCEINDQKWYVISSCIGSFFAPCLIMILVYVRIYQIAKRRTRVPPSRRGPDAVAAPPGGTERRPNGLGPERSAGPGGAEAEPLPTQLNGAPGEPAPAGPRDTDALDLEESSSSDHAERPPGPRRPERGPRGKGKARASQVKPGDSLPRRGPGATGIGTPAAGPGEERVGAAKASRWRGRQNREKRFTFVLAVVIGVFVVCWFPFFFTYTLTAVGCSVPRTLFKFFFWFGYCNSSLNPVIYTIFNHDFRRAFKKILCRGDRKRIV
# EXPERIMENTAL DETAILS: radioligand competition binding assay (Psychiatric Drug Screening Program)
# ASSAY CONDITIONS: read-out: Ki (nM) a2A
REPORTED METRIC: Ki (nM)
Reply with just the number (in nM).

Noted for COc1cc(C(F)(F)F)c(OC)cc1[C@@H]1CCCNC1.Cl [Compound 8, hydrochloride] : its Ki reads 1400

----------
# SYSTEM UNDER TEST: 5-HT2C (Homo sapiens (Human), UniProt P28335)
# Sequence (P28335 whole entry, looked up): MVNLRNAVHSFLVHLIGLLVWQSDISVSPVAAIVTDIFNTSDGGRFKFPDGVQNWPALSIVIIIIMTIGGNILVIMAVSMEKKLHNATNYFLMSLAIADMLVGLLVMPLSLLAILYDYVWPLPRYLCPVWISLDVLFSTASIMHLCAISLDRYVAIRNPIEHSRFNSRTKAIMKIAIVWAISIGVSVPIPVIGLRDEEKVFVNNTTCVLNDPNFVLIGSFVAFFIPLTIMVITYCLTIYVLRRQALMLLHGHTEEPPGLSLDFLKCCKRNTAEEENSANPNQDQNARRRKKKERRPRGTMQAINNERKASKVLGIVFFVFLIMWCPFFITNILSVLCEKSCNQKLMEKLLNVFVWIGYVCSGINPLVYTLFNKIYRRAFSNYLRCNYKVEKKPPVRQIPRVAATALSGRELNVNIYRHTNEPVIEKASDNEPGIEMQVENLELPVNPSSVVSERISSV
# EXPERIMENTAL DETAILS: Ca2+/Fluo-4 assay, stable h5-HT2C-HEK293 cell line;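 also: Agonist-induced intracellular Ca2+ rise read by Fluo-4 fluorescence in HEK293 cells stably expressing the human 5-HT2C receptor, each compound run in duplicate on three or more occasions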
# Type: cell-based
# ASSAY CONDITIONS: agonist potency, n = 3-4; read-out: 5-HT2C EC50
Where a name gives a salt, the structure may show the parent alone.
# key: entry, value: log10 of EC50
Use the decimal logarithm of EC50 (nM).

Answered examples (4):
COMPOUND: CCOc1cc([C@@H]2CCCNC2)c(OC)cc1CC.Cl [Compound 34, hydrochloride]
log10 of EC50: 2.92
//
COMPOUND: COc1cc(C(F)(F)F)c(SC)cc1[C@H]1CCCNC1.Cl [Compound 44, hydrochloride]
log10 of EC50: 2.82
//
COMPOUND: COc1cc(C(F)(F)F)c(F)cc1[C@H]1CCCNC1.Cl [Compound 50, hydrochloride]
log10 of EC50: 3.26
//
COMPOUND: COc1cc(C(F)(F)F)c(OC)cc1[C@@H]1CCCN(C)C1
log10 of EC50: 2.96

Noted for CCSc1cc([C@@H]2CCCNC2)c(OC)cc1C(F)(F)F.Cl [Compound 47, Hydrochloride] : its log10 of EC50 reads 2.65

Noted for CCOc1cc(C(F)(F)F)c(OC)cc1[C@H]1CCCNC1.Cl [Compound 29, hydrochloride] : its log10 of EC50 reads 3.43

Noted for COc1cc(C(F)(F)F)ccc1[C@H]1CCCNC1 [Compound 52, hydrochloride] : its log10 of EC50 reads 3.15

Noted for COc1cc([C@H]2CCCNC2)c(OC)cc1Cl : its log10 of EC50 reads 3.26

Noted for COc1cc(C(F)(F)F)c(OC)cc1C1CNC1.Cl [Compound 2, Hydrochloride] : its log10 of EC50 reads 0.72

Noted for COc1cc([C@@H]2CCCNC2)c(OC)cc1SC.Cl [Compound 18, hydrochloride] : its log10 of EC50 reads 2.71

Noted for COc1cc(C(F)(F)F)c(OC)cc1C1CCCNC1C.Cl (stereo not drawn) [Compound 35, hydrochloride] : its log10 of EC50 reads 3.48

Noted for CCSc1cc(OC)c([C@H]2CCCNC2)cc1OC [Compound 27, hydrochloride] : its log10 of EC50 reads 2.89

Noted for COc1cc([C@@H]2CCCNC2)ccc1C(F)(F)F.Cl [Compound 49, Hydrochloride] : its log10 of EC50 reads 3.11

Noted for CCc1cc(OC)c([C@H]2CCCNC2)cc1OC [Compound 31, hydrochloride] : its log10 of EC50 reads 2.81
